target: human TLR8 (Homo sapiens); assay: TLR8 inhibition reporter assay (HEK-Blue cells, secreted embryonic alkaline phosphatase reporter); conditions: HEK-Blue cells overexpressing human TLR8, stimulated with R848 15.9 μM; read-out: TLR 8 IC50
Sequence (Q9NR97 27-1041): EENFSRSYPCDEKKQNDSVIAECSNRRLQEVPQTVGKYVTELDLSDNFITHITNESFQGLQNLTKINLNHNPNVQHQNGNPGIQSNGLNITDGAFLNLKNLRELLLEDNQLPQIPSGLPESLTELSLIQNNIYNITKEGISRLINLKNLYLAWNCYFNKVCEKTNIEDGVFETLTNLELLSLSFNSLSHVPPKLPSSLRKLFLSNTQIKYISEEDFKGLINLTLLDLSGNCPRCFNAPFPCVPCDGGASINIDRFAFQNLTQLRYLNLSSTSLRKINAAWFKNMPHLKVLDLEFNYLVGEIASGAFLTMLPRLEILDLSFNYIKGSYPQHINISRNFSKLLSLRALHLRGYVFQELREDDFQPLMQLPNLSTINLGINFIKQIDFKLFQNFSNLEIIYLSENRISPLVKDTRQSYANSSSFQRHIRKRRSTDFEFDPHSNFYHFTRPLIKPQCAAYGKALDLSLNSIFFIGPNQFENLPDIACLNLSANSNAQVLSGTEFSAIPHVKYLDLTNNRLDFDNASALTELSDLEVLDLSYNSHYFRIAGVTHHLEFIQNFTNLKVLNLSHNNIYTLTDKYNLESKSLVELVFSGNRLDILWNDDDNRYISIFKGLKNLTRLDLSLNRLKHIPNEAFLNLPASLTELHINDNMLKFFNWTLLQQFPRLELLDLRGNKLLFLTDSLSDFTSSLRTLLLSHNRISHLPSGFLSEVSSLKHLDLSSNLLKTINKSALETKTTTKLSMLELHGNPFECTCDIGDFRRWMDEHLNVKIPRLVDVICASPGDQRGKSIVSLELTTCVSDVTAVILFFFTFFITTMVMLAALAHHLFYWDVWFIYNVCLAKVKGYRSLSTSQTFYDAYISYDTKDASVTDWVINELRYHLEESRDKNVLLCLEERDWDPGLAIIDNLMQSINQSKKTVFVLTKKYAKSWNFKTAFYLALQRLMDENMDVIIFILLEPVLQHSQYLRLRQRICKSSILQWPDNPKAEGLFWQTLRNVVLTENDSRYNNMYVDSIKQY
Measurement Name: IC50

| Molecule | Measurement Name | Reported Result |
| --- | --- | --- |
| Cn1c(-c2ccc(S(C)(=O)=O)cc2)nc2cc(C3CCN(C4CCN(C5CCOCC5)CC4)CC3)cc(F)c21 | IC50 | > 50 µM |
| COCCN1C2CCC1CC(N1CCC(c3ccc4nc(-c5ccc(S(C)(=O)=O)cc5)n(C)c4c3F)CC1)C2 (single isomer, unassigned) [Example 277] | IC50 | 16.3 µM |
| CS(=O)(=O)c1ccc(-c2nc3c(F)cc(C4CCN(C5CCN(C6CCOCC6)CC5)CC4)cc3n2C2CC2)cc1 | IC50 | > 50 µM |
| Cc1cc(C2CCN(C3CC4CCC(C3)N4CC3CCC3)CC2)cc2c1nc(-c1ccc(S(C)(=O)=O)cc1)n2C (single isomer, unassigned) | IC50 | > 25 µM |
| Cn1c(-c2ccc(S(C)(=O)=O)cc2)nc2c(F)cc(C3CCN(C4CCCN(CC5CC5)CC4)CC3)cc21 (single isomer, unassigned) [Example 299] | IC50 | > 50 µM |
| CCN(C)C1CCN(c2ccc(-c3cc(C)c4nc(-c5ccc(S(C)(=O)=O)cc5)n(C)c4c3)cc2)CC1 | IC50 | 4.4 µM |

Where do these numbers come from? They come from patent US12492188B2.
